Record form. Attribute: GI50. Fill in for each entry.
# Test system: NCI-H23
# assayDetails: NCI tumour cell line growth inhibition, 48 h
Activity calls are given as the source filed them. Cut-off read from the data, not from the text of the source: active = GI50 up to about 1.1 µM and inactive = higher.

Problem: What value of measured GI50 is listed for COc1ccc(/C(Cl)=C(\C=N/O)c2ccc(OC)c(OC)c2)cc1OC ?
Result: > 100 µM (inactive)

Problem: What value of measured GI50 is listed for NC(=O)CCC(NC(=O)Cc1ccccc1)C(=O)O.NC(CCC(=O)NC(=O)Cc1ccccc1)C(=O)O (stereo not given) ?
Result: > 8130 µM (inactive)

Problem: What value of measured GI50 is listed for CCOC(=O)C12C(=O)CCN1CCc1ccccc1C2C (stereo not given) ?
Result: > 100 µM (inactive)

Problem: What value of measured GI50 is listed for CC(=O)n1ccc2c(Cl)ncnc21 ?
Result: > 100 µM (inactive)

Problem: What value of measured GI50 is listed for CN(C)/C=N/c1cc(=O)n(C)c(=O)n1C ?
Result: > 100 µM (inactive)

Problem: What value of measured GI50 is listed for c1ccc2c3c([nH]c2c1)C1CCCN1CC3 (stereo not given) ?
Result: > 10 µM (inactive)

Problem: What value of measured GI50 is listed for [O-][S+]1[C@H](c2ccccc2)c2c(-c3ccccc3)sc(-c3ccccc3)c2[C@@H]1c1ccccc1 (stereo not given in full) ?
Result: 6.55 µM (inactive)

Problem: What value of measured GI50 is listed for CC(=O)OCCC[C@@H]1C(=C(C)C)CCC2[C@@]1(C)CC[C@@]1(C)C[C@](C)(CCC=C(C)C)CC[C@]21C (stereo not given in full) ?
Result: > 100 µM (inactive)

Problem: What value of measured GI50 is listed for CC#COS(=O)(=O)c1ccc(C)cc1 ?
Result: 65.6 µM (inactive)

Problem: What value of measured GI50 is listed for CN(Cc1cnc2nc(N)nc(N)c2n1)c1ccc(C(=O)NC23CC4CC(CC(C4)C2)C3)cc1 ?
Result: 10.2 µM (inactive)

====

# Tested on: U-251
# assayDetails: NCI tumour cell line growth inhibition, 48 h
Calls of active or inactive are those of the source. No stated cut-off is given here; in the data, active = GI50 up to about 1.1 µM and inactive = higher.
Give your call using only these classes: true (active), false (inactive)

Problem: How did this test come out for O=C(NC1CCCCC1)c1c(O)[nH]c(=S)[nH]c1=O ?
Result: false

Problem: How did this test come out for Clc1ccc(-c2c(C3=NCCN3)nnn2-c2ccccc2)cc1 ?
Result: false

Problem: How did this test come out for FC1(F)SC2CCCCCCCCCCC2C1(F)F (configuration not stated) ?
Result: false

Problem: How did this test come out for C/C(=C\CSCC(N)C(=O)O)CC/C=C(\C)CNc1ccccc1 (configuration not stated) ?
Result: false

Problem: How did this test come out for COc1ccc(/C=C/[N+](=O)[O-])cc1 ?
Result: false

Problem: How did this test come out for C/C(=C\CBr)CCC(Br)C(C)(C)Cl (configuration not stated) ?
Result: false

Problem: How did this test come out for O=C(OCc1ccccc1)N(CCCCN(CCCNCc1ccccc1)C(=O)OCc1ccccc1)CCCNCc1ccccc1 ?
Result: true

Problem: How did this test come out for O=c1cc(NNc2ccccc2F)[nH]c(=O)[nH]1 ?
Result: false

Problem: How did this test come out for [O-][S+]1[C@H](c2ccccc2)c2c(-c3ccccc3)sc(-c3ccccc3)c2[C@@H]1c1ccccc1 (some centres not stated) ?
Result: false

Problem: How did this test come out for CCOC(=O)CCC(NC(=O)c1ccc(Oc2nc3ccccc3nc2-c2ccccc2)cc1)C(=O)OCC (configuration not stated) ?
Result: false

Problem: How did this test come out for CNC(=O)OCc1cc2ccncc2c2c1[nH]c1ccccc12 ?
Result: false

Problem: How did this test come out for Cc1ccc(C2=Nn3c(nc4sc5c(c4c3=O)CCCC5)SC2)cc1 ?
Result: false

Problem: How did this test come out for COc1ccc2c3c([nH]c2c1[N+](=O)[O-])C(C)N(Cc1ccccc1)CC3 (configuration not stated) ?
Result: false

Problem: How did this test come out for CCOc1ccc(/N=N/C2C(=O)N(C(=O)CC(=O)Nc3ccc(C)cc3)N=C2C)cc1 (configuration not stated) ?
Result: false

Problem: How did this test come out for C/C=N\n1c(C)n[nH]c1=O ?
Result: false

Problem: How did this test come out for N=C(N)N/N=C/c1oc(-c2ccc(S(=O)(=O)O)o2)c(-c2ccc(S(=O)(=O)O)o2)c1[N+](=O)[O-] ?
Result: false

Problem: How did this test come out for N#CCCN(CCC#N)c1ccc(/C=C(/NC(=O)c2cc([N+](=O)[O-])ccc2Cl)C(=O)NN)cc1 ?
Result: false

Problem: How did this test come out for C=CCC1C(=O)C(C(=O)OC)N2CCc3c([nH]c4ccccc34)C12 (configuration not stated) ?
Result: false

Problem: How did this test come out for O=C1CCCC2=C1CC1=C(CCCC1=O)N2c1ccc(Cl)cc1 ?
Result: false

Problem: How did this test come out for Cn1c(=O)c2nc(N3CCCCC3)cnc2n(C)c1=O ?
Result: false

Problem: How did this test come out for CC(=O)NN/C=N/C(C#N)=C(\N)C#N ?
Result: false

Problem: How did this test come out for NC(=O)CCC(NC(=O)Cc1ccccc1)C(=O)O.NC(CCC(=O)NC(=O)Cc1ccccc1)C(=O)O (configuration not stated) ?
Result: false
